# measurementNotes: Half-life from rat plasma at a single oral dose of 25 mg/kg
# Format: ADME, organism-based
# Parameters: dose 25 mg/kg, route oral
propertyName: half-life
Could you give the number and then its unit, please?

Task: Tell me the measured half-life of COc1ccc2c(O[C@@H]3C[C@H]4C(=O)N[C@]5(C(=O)O)C[C@H]5/C=C\CCCCC[C@H](NC(=O)OC(C)(C)C)C(=O)N4C3)cc(-c3ccccc3)nc2c1 , please.
Output: 24 min

----------
# measurementNotes: Maximum plasma concentration in rats after oral administration at 20 mg/kg
# Format: ADME, organism-based
# Parameters: dose 20 mg/kg, route oral
# conditionsUsed: rat
propertyName: Cmax
Could you give the number and then its unit, please?

Task: Tell me the measured Cmax of COc1ccc2c(O[C@@H]3C[C@H]4C(=O)N[C@]5(C(=O)O)C[C@H]5/C=C\CCCCC[C@H](NC(=O)OC5CCCC5)C(=O)N4C3)cc(-c3csc(NC(C)C)n3)nc2c1 , please.
Output: 2500 nM
